Property: IC50; scope: individual compounds
# experimental_system: intracellular phosphorylation of EGFR (Tyr1068) in PC-9 cells (Ex19Del) (Homo sapiens, UniProt P00533, DEL746-750)
# Sequence (P00533 with tags, fused parts or gaps DEL746-750): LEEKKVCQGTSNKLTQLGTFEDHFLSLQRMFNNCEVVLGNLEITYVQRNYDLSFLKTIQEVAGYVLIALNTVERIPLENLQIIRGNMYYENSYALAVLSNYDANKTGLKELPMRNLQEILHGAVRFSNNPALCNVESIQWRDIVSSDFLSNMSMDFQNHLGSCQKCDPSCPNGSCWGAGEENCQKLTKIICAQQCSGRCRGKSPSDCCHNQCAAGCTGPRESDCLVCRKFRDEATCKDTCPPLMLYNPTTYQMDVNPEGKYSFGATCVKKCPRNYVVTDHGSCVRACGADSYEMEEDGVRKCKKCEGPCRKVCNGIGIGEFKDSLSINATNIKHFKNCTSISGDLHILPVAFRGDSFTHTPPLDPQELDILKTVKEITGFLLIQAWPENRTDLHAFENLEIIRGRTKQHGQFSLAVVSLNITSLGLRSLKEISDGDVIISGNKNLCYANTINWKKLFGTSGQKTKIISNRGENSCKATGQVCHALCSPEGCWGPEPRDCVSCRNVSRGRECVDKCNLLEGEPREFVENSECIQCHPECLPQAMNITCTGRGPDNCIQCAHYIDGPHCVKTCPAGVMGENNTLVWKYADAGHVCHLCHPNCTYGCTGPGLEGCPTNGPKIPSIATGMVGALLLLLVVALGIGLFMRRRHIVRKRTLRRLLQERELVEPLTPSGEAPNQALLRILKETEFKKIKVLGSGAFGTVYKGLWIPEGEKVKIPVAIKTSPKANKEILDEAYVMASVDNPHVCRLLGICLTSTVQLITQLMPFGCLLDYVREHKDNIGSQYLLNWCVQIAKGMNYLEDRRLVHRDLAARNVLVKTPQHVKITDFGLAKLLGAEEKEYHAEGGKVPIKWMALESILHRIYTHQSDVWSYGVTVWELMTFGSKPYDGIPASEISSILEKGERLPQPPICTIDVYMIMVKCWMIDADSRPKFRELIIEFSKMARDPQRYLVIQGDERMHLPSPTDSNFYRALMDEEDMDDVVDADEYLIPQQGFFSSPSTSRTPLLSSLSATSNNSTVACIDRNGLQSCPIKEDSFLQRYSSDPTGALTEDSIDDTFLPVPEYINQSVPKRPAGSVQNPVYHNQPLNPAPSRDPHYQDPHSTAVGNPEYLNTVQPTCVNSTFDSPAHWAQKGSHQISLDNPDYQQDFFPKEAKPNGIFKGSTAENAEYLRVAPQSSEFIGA
# test_details: PC-9 pEGFR AlphaLISA assay
# run_conditions: 4 hours compound incubation, read-out: Ext pEGFR_PC-9 Ex19Del IC50

compound="C[C@@H](Oc1cc(-c2cnn([C@@H](C)CO)c2)cc2ncnc(Nc3ccc4ncccc4c3F)c12)C1COC1 (single isomer, unassigned)" result="≤ 10 nM"
compound=C[C@H](Oc1cc(-c2cnn(C)c2)cc2ncnc(Nc3ccc4ncccc4c3F)c12)[C@@H]1COCCN1 result="> 50.1 nM"
compound=CO[C@@H]1CCN(c2cc3ncnc(Nc4ccc5ncccc5c4F)c3c(O[C@H](C)CN(C)C)n2)C1 result="≤ 10 nM"

Then there is this compound:
Field IC50 (entry CCOc1cc2ncnc(Nc3ccc4ncccc4c3F)c2c(O[C@H](C)CN(C)C)n1 ) reads > 50.1 nM

###

Property: IC50; scope: individual molecules
# experimental_system: EGFR (d746-750) (Homo sapiens, UniProt P00533, DEL746-750)
# Construct: purchased SignalChem E10-122JG
# Sequence (P00533 with tags, fused parts or gaps DEL746-750 limits assumed): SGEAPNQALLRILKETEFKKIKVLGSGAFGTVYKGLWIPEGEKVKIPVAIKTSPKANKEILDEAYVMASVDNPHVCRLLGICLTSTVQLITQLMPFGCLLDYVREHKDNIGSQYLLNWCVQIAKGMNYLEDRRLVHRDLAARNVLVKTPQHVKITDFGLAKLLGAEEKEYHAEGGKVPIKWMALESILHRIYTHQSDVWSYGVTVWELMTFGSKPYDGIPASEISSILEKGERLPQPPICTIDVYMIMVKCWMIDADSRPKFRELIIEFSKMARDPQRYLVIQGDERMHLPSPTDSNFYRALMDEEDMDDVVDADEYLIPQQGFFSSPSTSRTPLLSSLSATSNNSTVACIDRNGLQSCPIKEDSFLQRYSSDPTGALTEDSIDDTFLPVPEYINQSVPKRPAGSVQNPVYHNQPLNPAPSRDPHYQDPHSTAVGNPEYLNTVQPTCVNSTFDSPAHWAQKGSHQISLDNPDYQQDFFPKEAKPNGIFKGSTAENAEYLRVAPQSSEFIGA
# test_details: Biochemical EGFR inhibition assay (Caliper mobility shift), EGFR (d746-750)
# run_conditions: read-out: Enz EGFR_Exon19-del746-750 IC50

Solved cases (6 shown):
molecule="C[C@@H](Oc1cc(-c2cnn(C)c2)cc2ncnc(Nc3cc(F)c4ncccc4c3F)c12)C1COC1 [Example 9]" experimental_system="EGFR (d746-750) (Homo sapiens, UniProt P00533, DEL746-750)" metric=IC50 result="< 10 nM"
molecule="C[C@H](CN(C)C)Oc1cc(N2CCOC(C(F)F)C2)cc2ncnc(Nc3ccc4ncccc4c3F)c12 (mixture of isomers) [Example 98]" experimental_system="EGFR (d746-750) (Homo sapiens, UniProt P00533, DEL746-750)" metric=IC50 result="< 10 nM"
molecule="C[C@H](CN(C)C)Oc1cc(-c2cnn(C)c2)cc2ncnc(Nc3ccc4ncc(F)cc4c3)c12 [Example 7]" experimental_system="EGFR (d746-750) (Homo sapiens, UniProt P00533, DEL746-750)" metric=IC50 result="< 10 nM"
molecule="C[C@H](CN(C)C)Oc1cc(N2CC3(COC3)C2)cc2ncnc(Nc3ccc4ncccc4c3F)c12 [Example 71]" experimental_system="EGFR (d746-750) (Homo sapiens, UniProt P00533, DEL746-750)" metric=IC50 result="< 10 nM"
molecule="C[C@H](CN(C)C)Oc1nc(N2CC[C@H](C(C)(C)O)C2)cc2ncnc(Nc3ccc4ncccc4c3F)c12 [Example 75]" experimental_system="EGFR (d746-750) (Homo sapiens, UniProt P00533, DEL746-750)" metric=IC50 result="< 10 nM"
molecule="C[C@H](CN(C)C)Oc1cc(-c2cnn(C)c2)cc2ncnc(Nc3ccc4cccnc4c3F)c12 [Example 108]" experimental_system="EGFR (d746-750) (Homo sapiens, UniProt P00533, DEL746-750)" metric=IC50 result="< 10 nM"

Field IC50 (entry C[C@@H](Oc1cc(N2CCC(N(C)C)CC2)cc2ncnc(Nc3ccc4ncccc4c3F)c12)C1COC1 [Example 78] ) reads < 10 nM
